System: HCT-116 colon
Outcome codes: yes (1) = active, no (0) = inactive

| Molecule | Discrete label |
| --- | --- |
| N#CC1C(=O)NC(c2ccccc2[N+](=O)[O-])c2sc3c(F)cccc3c21 (stereo not given) | yes (1) |
| C=CCc1c(O)c(C(=O)/C=C/c2ccccc2)c(OC)c2ccoc12 | no (0) |
| COc1cc(/C=C2\C[C@H]3[C@@H]4CC=C5C[C@@H](OC(C)=O)CC[C@]5(C)[C@H]4CC[C@]3(C)[C@H]2OC(C)=O)ccc1OCCN1CCCC1 | no (0) |
| CCn1ccc(NS(=O)(=O)c2ccc(N)cc2)nc1=O | no (0) |
| Cc1cc(Cl)cc(Cc2cc(Cl)cc(C)c2O)c1O | no (0) |

* * *

System: K-562 leukemia
Assay: NCI tumour cell line growth inhibition, 48 h

| Compound | Tgt | TGI |
| --- | --- | --- |
| O=C1NC(=S)NC(=O)C1=C/C=C/c1ccc([N+](=O)[O-])cc1 | K-562 leukemia | > 100 µM |
| O=C(/C=C/OC(=O)c1cccc(Cl)c1)c1ccc(Cl)cc1 | K-562 leukemia | > 100 µM |
| COc1cc2ccc1OCc1cccc(n1)COc1ccc(cc1OC)C=NCCNCCN=C2 | K-562 leukemia | > 100 µM |
| COc1ccc2c(c1OC(C)=O)C1=CC(=O)CCC13CCNC3C2 (stereo not drawn) | K-562 leukemia | > 100 µM |
| COc1cccc2c1C(=O)c1c(O)c3c(c(O)c1C2=O)C[C@@](O)(C(=O)CO)CC3OC1CC(NCCCC(OC(C)=O)OC(C)=O)C(O)C(C)O1 (stereo partly drawn) | K-562 leukemia | 0.000729 µM |
| Cc1cc2nc(N3C(=O)/C(=C/c4ccc(N(C)C)cc4)N=C3c3ccccc3)sc2cc1C | K-562 leukemia | > 100 µM |
| CC1=NN(c2nc(N)nc(/C(C#N)=C\c3cccc([N+](=O)[O-])c3)n2)C(C)(C)C1 | K-562 leukemia | > 35.4 µM |
| C=CC1(C)OC2(CCN(C(=O)OCC)CC2)OC1C (stereo not drawn) | K-562 leukemia | > 100 µM |

* * *

System: COLO 205 colon
Assay: NCI tumour cell line growth inhibition, 48 h

| Structure smiles | GI50 |
| --- | --- |
| Cc1cc(=O)oc2cc(OC/C=C3\CCC(=O)O3)ccc12 | 5.8 µM |
| COc1cc(/C=C2\C[C@H]3[C@@H]4CC=C5C[C@@H](OC(C)=O)CC[C@]5(C)[C@H]4CC[C@]3(C)[C@H]2OC(C)=O)ccc1OCCN1CCCC1 | 13.3 µM |
| COC(=O)[C@]12CC[C@@H](C)[C@H](C)[C@@H]1C1=CC[C@@H]3[C@@]4(C)C(C=O)=C[C@@](C)(COC(=O)/C=C/c5ccccc5)[C@@H]4[C@H](O)C[C@@]3(C)[C@]1(C)CC2 | 2.3 µM |
| Cc1nccc2c3ccc(OCc4cn(-c5ccc(Cl)cc5)nn4)cc3n(CC(C)C)c12 | 1.51 µM |

* * *

System: HS 578T breast
Assay: NCI tumour cell line growth inhibition, 48 h
Let's look at some molecules and their measured TGI.
Measured metric: TGI (µM)

| Molecule | Measured metric | Readout units | Qual | Experimental value |
| --- | --- | --- | --- | --- |
| O=c1c(Cl)cc2nc3ccccc3sc-2c1Cl | TGI | µM | > | 100 |
| Fc1ccc(Nc2nc3ccccc3c3occc23)cc1 | TGI | µM | = | 33.1 |
| O=C1c2ccccc2C(=O)c2c(NCCCN3CCOCC3)ccc(NCCCN3CCOCC3)c21 | TGI | µM | = | 28.5 |
| O=Nc1c(O)cc(Nc2cccnc2)c2ccccc12 | TGI | µM | > | 100 |
| CN1CCN(Cc2ccc(NC(=O)c3cncc(C#Cc4cnc(N)c5cnccc45)c3)cc2C(F)(F)F)CC1 | TGI | µM | = | 0.7 |
| COCCn1cc(-c2csc(-c3c[nH]c4ccc(Br)cc34)n2)c2cccnc21 | TGI | µM | = | 43 |
| CSc1c(C#N)c(S)[nH]c(=O)c1C#N | TGI | µM | > | 100 |
| Nc1nc(=S)n(-c2ccc(Cl)cc2)c2nc3ccccc3cc12 | TGI | µM | > | 100 |
| Clc1c2ccccc2nc2c1[nH]c1ccccc12 | TGI | µM | > | 100 |
| CCCCCC[C@H](C)NC(=O)c1ccc(Nc2nc3ccccc3c3occc23)cc1 | TGI | µM | = | 67.6 |
| C/C(=N/Nc1nc(C)cc(=O)[nH]1)C(=O)O | TGI | µM | > | 100 |
| COC(=O)/C(C#N)=C(\N)c1c(C)c2ccccc2oc1=N | TGI | µM | > | 100 |
| CCN(Cc1ccc(F)cc1)c1ccc(CO)c(OC)c1 | TGI | µM | > | 100 |
| Cn1c2ccccc2c2c(=O)n(CCCC(=O)OC(=NC3CCCCC3)NC3CCCCC3)c3c(-c4ccccc4)nnn3c21 | TGI | µM | > | 100 |
| CCn1ccc(NS(=O)(=O)c2ccc(N)cc2)nc1=O | TGI | µM | > | 100 |
| COc1cc2c[n+](C)c3c(c2cc1OC)Cc1cc2c(cc1-3)OCO2 | TGI | µM | > | 100 |
| O=[N+]([O-])c1ccc(Sc2ccncn2)c([N+](=O)[O-])c1 | TGI | µM | = | 24.2 |
| COC1/C=C/C(C)C(C(C)C(OC)C(C)CCC(=O)C(C)C(CC(=O)O)OC)OC(=O)/C=C/C=C(\C)CC(OC)CC2=CC(=O)O[C@H](C2)C(C)C(OC)CC(OC)/C=C/C(C)C(OC)C1 (some centres not stated) | TGI | µM | = | 0.387 |
| S=C(N1CCN(c2ccccc2)CC1)N1CCN(c2ccccc2)CC1 | TGI | µM | > | 100 |
| Cc1nnc(Sc2nc(C#N)c(C#N)nc2Sc2nnc(C)s2)s1 | TGI | µM | = | 99.4 |
| O=C(NCCCN1CCN(CCCNC(=O)Nc2cccc3ccccc23)CC1)Nc1cccc2ccccc12 | TGI | µM | = | 49.1 |
| Cc1cc(=O)oc2cc(OC/C=C3\CCC(=O)O3)ccc12 | TGI | µM | > | 87.4 |

* * *

System: OVCAR-8 ovarian
Test: NCI tumour cell line growth inhibition, 48 h

| Compound | Qual | TGI [µM] |
| --- | --- | --- |
| O=c1oc2ccc3ccccc3c2cc1-c1nc2ccc([N+](=O)[O-])cc2o1 | > | 100 |
| Cc1ccc(S(=O)(=O)N2CCc3ccc(O)c4c3C2Cc2ccc3c(c2-4)OCO3)cc1 (centres undefined) | = | 20.7 |
| c1ccc([P+](CCCCCC[P+](c2ccccc2)(c2ccccc2)c2ccccc2)(c2ccccc2)c2ccccc2)cc1 | = | 71.2 |
| O=P(O)(CN1CCN(CP(=O)(O)c2ccccc2)CCN(CP(=O)(O)c2ccccc2)CC1)c1ccccc1 | > | 100 |
| Cc1cc(=O)oc2cc(OC/C=C3\CCC(=O)O3)ccc12 | > | 74.5 |
| O=C(N/N=C/C=C/c1ccc([N+](=O)[O-])o1)c1ccc(C(=O)N/N=C/C=C/c2ccc([N+](=O)[O-])o2)cc1 | = | 27.7 |
| N#Cc1ccc(C2NN=CC23C(=O)c2ccccc2OC3c2ccccc2)cc1 (centres undefined) | > | 100 |
| CCCCCCCC(=O)[O][Hg][CH2]C1COC([CH2][Hg][O]C(=O)CCCCCCC)CO1 (centres undefined) | = | 40.1 |
| COc1cccc(NC(=O)C(=O)C2C=CCS2(=O)=O)c1 (centres undefined) | > | 100 |
| COC1C(O)C(C)OC(OC2CCC3(C)C(CCC4C3C(O)CC3(C)C(C5=CC(=O)OC5)CCC43O)C2)C1O (centres undefined) | = | 1.67 |
| Cc1ccc(-c2cc(-c3ccco3)c(C#N)c(=O)n2C2OC(CO)C(O)C(O)C2O)cc1 (centres undefined) | > | 100 |
| CN(C(=O)c1ccco1)C(=S)N1CCN(c2ccccn2)CC1 | > | 100 |
| COC1=CC(=O)C2=C(C[C@@]3(C)C(=C2)C(CO)=CC[C@H]3O)C1=O | = | 32.9 |
| C[Si](C)(C)C(Sc1ccccc1)(Sc1ccccc1)Sc1ccccc1 | > | 100 |
| O=c1c([OH2+])c(-c2ccc(O)cc2[O-])oc2cc(O)cc([O-])c12.O=c1c([OH2+])c(-c2ccc(O)cc2[O-])oc2cc(O)cc([O-])c12.[Ti+4] | > | 100 |
| COc1ccc(/C=C2\c3cc(OC)c(OC)c(OC)c3CC[C@@H]2O)cc1F | = | 93.4 |
| Clc1c2ccccc2nc2c1[nH]c1ccccc12 | > | 100 |
| O=[N+]([O-])c1cc2c([N+](=O)[O-])cccc2o1 | = | 38.8 |
| Nc1ncnc2c1ccn2[C@@H]1O[C@H]([C@H](O)c2ccc(Cl)c(F)c2)[C@@H](O)[C@H]1O | > | 100 |

Reference for the values: PubChem BioAssay (NCI)
